one-nucleolus phenotype percent effect reference
System: MCF10A
Assay: one-nucleolus phenotype percent effect (relative to siNT 0% and siNOL11 100%); higher = more cells with one nucleolus (ribosome biogenesis inhibition)
Conditions: 20 nM; 72 h
// return numeric value only (unit: %, not printed)

Worked set:
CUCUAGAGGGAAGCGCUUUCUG [hsa-miR-519c-5p] | 1.39
ACAGUAGUCUGCACAUUGGUUA [hsa-miR-199b-3p] | -19.3

Lookup result for UAUAGGGAUUGGAGCCGUGGCG [hsa-miR-135a-3p] ; measured one-nucleolus phenotype percent effect: 13.5

---

Tested on: MCF10A
Assay: percent viability (nuclei count relative to siNT); higher = more viable cells
Details: 20 nM; 72 h
recorded_endpoint: percent viability (%)
Numeric answer only, unit % assumed.

AAAUUCAUGUUCAAUCUAAACC [hsa-miR-4760-3p] | 68.6

Entry under test: CUCGGCGCGGGGCGCGGGCUCC [hsa-miR-1469] . Its percent viability was 30

Reported percent viability ( UGGAUAUGAUGACUGAAA [hsa-miR-4791] ) = 71.5

sequence GGCUGGUCAGAUGGGAGUG [hsa-miR-6131] , percent viability observed: 71

---

Test system: MCF10A
Assay: 5+ nucleoli phenotype percent effect (relative to siNT 0% and siKIF11 100%); higher = more cells with five or more nucleoli
Conditions: 20 nM; 72 h
We'd kindly ask you to apply these 5+ nucleoli phenotype percent effect classes: A: < -20%; B: ≥ -20% and < 10%; C: ≥ 10%

Reference set (5 entries):
AGAUGUAUGGAAUCUGUAUAUAUC [hsa-miR-3171] | C
UUACGGACCAGCUAAGGGAGGC [hsa-miR-4788] | B
UCGUACCGUGAGUAAUAAUGCG [hsa-miR-126-3p] | B
GUGAGUGUGGAUUUGGCGGGGUU [hsa-miR-6790-5p] | A
UGGGCAGGGGCUUAUUGUAGGAG [hsa-miR-6721-5p] | C

Looking at AAAGACUCUGCAAGAUGCCU [hsa-miR-4432] , which class would you pick?
B

Band assignment needed for ACUGCUGAGCUAGCACUUCCCG [hsa-miR-93-3p] please.
B

Which category fits this record: GGGGGGUGUGGAGCCAGGGGGC [hsa-miR-6752-5p]
C

---

Test system: MCF10A
Assay: percent viability (nuclei count relative to siNT); higher = more viable cells
Conditions: 20 nM; 72 h
So basically: is percent viability under 30%? Then y. Not under? Then n.

Completed entries (count: 10):
UGAGAUGAAGCACUGUAGCUC [hsa-miR-143-3p] | n
AUGGGGUGAGAUGGGGAGGAGCAGC [hsa-miR-6812-5p] | y
CCUGCGUGUUUUCUGUCCAA [hsa-miR-4520b-5p] | n
UUCUGCUGCCGGCCAAGGC [hsa-miR-6071] | y
CAGGGAAAUGGGAAGAACUAGA [hsa-miR-5584-5p] | n
GAUCCCUUUAUCUGUCCUCUAG [hsa-miR-6866-3p] | n
UGGGCUGAGGGCAGGAGGCCUGU [hsa-miR-4656] | y
AGGGACUUUUGGGGGCAGAUGUG [hsa-miR-365a-5p] | n
CUGGACUGAGCCGUGCUACUGG [hsa-miR-1269a] | n
AAGUGUGCAGGGCACUGGU [hsa-miR-648] | y

Here's an entry: CAAAAACCAUAGUUACUUUUGC [hsa-miR-548bb-3p] . Is its percent viability below 30%?
n

# TODO verify percent viability < 30% strictly for this sequence: UAUGUGACCUCGGAUGAAUCA [hsa-miR-4501]
y

Lab note: confirm whether the reported percent viability for this sequence is below 30%, equality not counting. sequence: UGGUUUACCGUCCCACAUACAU [hsa-miR-299-5p]
y

Bench note: check whether GAAGGCAGCAGUGCUCCCCUGU [hsa-miR-3714] shows percent viability below 30%
y

Consider the sequence CCAAUUACCACUUCUUU [hsa-miR-4275] . Is its percent viability strictly less than 30%?
n

A record lists CUGUACAGCCUCCUAGCUUUCC [hsa-let-7a-2-3p] . Is its percent viability below 30%?
n

I wonder whether AUUUCCCUGCCAUUCCCUUGGC [hsa-miR-4446-5p] has percent viability below 30%. Can you tell?
y

Quick check: does AGCUUUUGGGAAUUCAGGUAGU [hsa-miR-3140-3p] have percent viability under 30%?
y

Please indicate whether the reported percent viability of ACCAGGGCCAGCAGGGAAUGU [hsa-miR-6837-5p] is strictly below 30%.
y

Please check: percent viability for AUAGCAGCAUAAGCCUGUCUC [hsa-miR-4524b-5p] , strictly under 30% or not?
y
